Biological target: human IL-17AA (Homo sapiens)
Sequence (Q16552 24-155): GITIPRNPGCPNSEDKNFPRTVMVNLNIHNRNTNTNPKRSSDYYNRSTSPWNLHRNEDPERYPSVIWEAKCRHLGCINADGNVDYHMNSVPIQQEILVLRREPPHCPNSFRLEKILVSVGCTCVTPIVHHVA
Sequence (Q16552 24-155): as above
Test: IL-8 release assay in human epithelial keratinocytes adult (HEKa)
Conditions: 3 ng/ml human IL-17AA + 10 ng/ml human TNFalpha, 68-72 h, IL-8 by HTRF, read-out: Rel EC50 L-8 release assay
Procedure: Example: IL-8 release assay in human epithelial keratinocytes adult (HEKa) Keratinocytes were seeded at 3500 cells/well in 384-well ViewPlates (Perkin Elmer) in Epilife medium (Thermo Fisher) containing human keratinocyte growth supplement (HKGS) without hydrocortisone and incubated in a humid incubator at 37° C., 5% CO2, overnight. […] for test compounds, by the use of acoustic pipetting. […] Cytotoxicity was measured in the cell-containing […]
pEC50: −log10 of the molar value.
# maps each entry to its pEC50

[
  {
    "compound": "CC(C)n1cc(-c2ccc(Cl)c(CC(NC(=O)c3ccnn3C)C(=O)Nc3ccc(-c4nncn4C)cc3)c2)ccc1=O (stereo not shown)",
    "endpoint.result": "< 6.00"
  },
  {
    "compound": "CCOc1cccc(-c2ccc(Cl)c(CC(NC(=O)c3ccnn3C)C(=O)Nc3ccc(-c4nncn4C)cc3)c2)c1 (stereo not shown)",
    "endpoint.result": "6.00 to 7.00"
  },
  {
    "compound": "CC(C)n1cc(-c2ccc(Cl)c(CC(NC(=O)c3ccnn3C)C(=O)Nc3ccc(-c4nncn4C)cc3)c2)cc(C(F)(F)F)c1=O (stereo not shown)",
    "endpoint.result": "< 6.00"
  },
  {
    "compound": "Cc1cc(-c2ccc3c(c2)[C@H]([C@H](NC(=O)c2ccnn2C)C(=O)Nc2ccc(-c4c(C)n[nH]c4C)cc2)CC3)ccc1CN1CCOCC1",
    "endpoint.result": "> 7.00"
  },
  {
    "compound": "CC(C)n1cc(-c2ccc(Cl)c(CC(NC(=O)C3(F)CC3)C(=O)Nc3ccc(-c4nncn4C)cc3)c2)cc(C(F)(F)F)c1=O (stereo not shown)",
    "endpoint.result": "< 6.00"
  },
  {
    "compound": "Cc1n[nH]c(C)c1-c1ccc(NC(=O)[C@H](Cc2cc(-c3cccc(CN)c3)ccc2Cl)NC(=O)c2ccnn2C)cc1",
    "endpoint.result": "6.00 to 7.00"
  }
]

Give me measured pEC50, please, for this compound: `CC(C)n1cc(-c2ccc(Cl)c(C[C@H](NC(=O)OC(C)(C)C)C(=O)Nc3ccc(-c4nncn4C)cc3)c2)ccc1=O`
< 6.00

Using known records, supply pEC50 for `Cc1n[nH]c(C)c1-c1ccc(NC(=O)[C@H](Cc2cc(-c3ccnc(N4CCOCC4)c3)ccc2Cl)NC(=O)C2(F)CC2)cc1`
> 7.00

Find the measured pEC50 of CN(c1cc(-c2ccc(Cl)c(CC(NC(=O)c3ccnn3C)C(=O)Nc3ccc(-c4cncn4C)cc3)c2)ccn1)C1CC1 (stereo not shown) and report it.
> 7.00

Identify pEC50 associated with the compound CC(C)n1cc(-c2ccc(Cl)c(CC(NC(=O)c3ccnn3C)C(=O)Nc3ccc(-c4ncnn4C)cc3)c2)ccc1=O (stereo not shown)
< 6.00

Provide measured pEC50 value, entry: Cn1cncc1-c1ccc(NC(=O)C(Cc2cc(-c3ccnc(N4CC(CO)C4)c3)ccc2Cl)NC(=O)c2ccnn2C)cc1 (stereo not shown)
6.00 to 7.00

Answer with reported pEC50 of `CC(C)n1cc(-c2ccc(Cl)c(C[C@H](NC(=O)OCc3ccccc3)C(=O)Nc3ccc(-c4nncn4C)cc3)c2)ccc1=O`
6.00 to 7.00

Could you please provide reported pEC50 for Cn1cnnc1-c1ccc(NC(=O)C(Cc2cc(-c3cccc(C(C)(C)O)c3)ccc2Cl)NC(=O)c2ccnn2C)cc1 (stereo not shown) ? Thanks!
6.00 to 7.00
